test-name: in vitro
condition-parameters: human, hela cells, % viability
As shown below, each of these molecules has a reported viability at 28.5 h, 10 µM value.
Reply with just the number (in %).

Example molecules with recorded viability at 28.5 h, 10 µM:
molecule | viability at 28.5 h, 10 µM, %
CC(=O)Nc1cccc(-c2ccc(Nc3cccc(N(C)C)c3)nc2)c1 [CBK036829] | 97.9
Nc1ccccc1Sc1ccccn1 [CBK085854] | 103
O=C1NCCNC(=O)C2(C/C=C/COc3ccccc31)CCCNC2 (centres unmarked) [CBK292171] | 115
N#CCCCN1CCCC2(C1)NCCc1c2[nH]c2cc(F)ccc12 (centres unmarked) [CBK039826] | 117

Query: Look up viability at 28.5 h, 10 µM for this molecule: O=C(NCCN1CCCCC1)C1CC(=O)N(Cc2ccccc2)C1 (centres unmarked) [CBK305150]
Reply: 96.5

Query: Try the molecule N#Cc1nonc1NCn1nnc2ccccc21 [CBK062650]
Reply: 81.7

Query: Try the molecule COc1cccc(C2(NC(=O)CCn3nc(C)cc3C)CCCC2)c1 [CBK283749]
Reply: 90.7

Query: Try the molecule Cc1ccc(S(=O)(=O)N2CCOCC2)cc1C(=O)Oc1cccc2cccnc12 [CBK269726]
Reply: 98

----------
As shown below, each of these molecules has a reported viability at 28.5 h, 10 µM value.
test-name: in vitro
condition-parameters: human, hela cells, % viability
Reply with just the number (in %).

Example molecules with recorded viability at 28.5 h, 10 µM:
molecule | unit-spec | viability at 28.5 h, 10 µM
Cc1ccc(C2CCCN2C(=O)c2ccc(=O)n(CC(=O)NC3CCCCC3)c2)cc1C (stereo not drawn) | % | 97.4
COc1ncc(-c2nccnc2OCCc2c[nH]c3ccccc23)c(OC)n1 | % | 79.2
CCCN1C(=O)[C@@H]2[C@@H](CCN2C(=O)C(=O)O)N(Cc2cccs2)C1=O | % | 93.1
COc1ccccc1CC(C)NC(=O)c1cc(C2CC2)nn1C (stereo not drawn) | % | 83.8
CC(C)CCNC(=O)c1c(O)c2ccccc2[nH]c1=O | % | 91.7
Cn1c(=O)c2c(ncn2CC(=O)Nc2cccc3ccccc23)n(C)c1=O | % | 95.8
CCc1csc(C(=Cc2ccc(OC)cc2)C(N)=O)n1 | % | 86.9
COc1ccc(C(CNC(=O)Cn2c(-c3cccc(C)c3)n[nH]c2=S)N2CCOCC2)cc1OC (stereo not drawn) | % | 88.2

Lab note: next molecule to report on.
Query: Look up viability at 28.5 h, 10 µM for this molecule: "O=C1NCCCNC(=O)C2(C/C=C/CCOc3ccccc31)CCN(C(=O)CN1CCCC1)CC2"
Reply: 101

----------
test-name: in vitro
condition-parameters: human, hela cells, % viability
As shown below, each of these compounds has a reported viability at 28.5 h, 10 µM value.
Reply with just the number (in %).

compound | unit-spec | viability at 28.5 h, 10 µM
Cc1c(-c2csc(CC#N)n2)sc2ccccc12 | % | 65.6
O=C(O)CCc1nn2c3ccccc3n(CC(=O)c3cccs3)c2nc1=O | % | 99.8
Cc1csc(C(Cc2cccs2)NC(=O)Cc2c(C)[nH]c(=O)[nH]c2=O)n1 (stereo not drawn) | % | 89.7
Cc1nc(C)n(CC2CCCN(Cc3cn4c(C)cccc4n3)C2)n1 (stereo not drawn) | % | 97.7
c1ccc(COCCCN2CCC3(CC2)OCCc2c3[nH]c3ccccc23)cc1 | % | 84.8

Query: Look up viability at 28.5 h, 10 µM for this compound: "CCc1nc2ccc(C(=O)Nc3cccc(OC)c3)cn2c1N(C)Cc1cccs1"
Reply: 96.7

Query: Try the compound Cc1nnc2n1CCN(C(=O)CC1OCCc3sccc31)C2 (stereo not drawn)
Reply: 94
